Test system: CD2F1 mice, L1210 leukemia ip, survival T/C
protocol.summary: NCI In Vivo Anticancer Drug Screen. Data for tumor model L1210 Leukemia (intraperitoneal) in CD2F1 (CDF1) mice
experimental.context: endpoint: mean survival time; dose: 100.0 mg/kg/injection; schedule: Q01DX009 (ip); vehicle: saline with Tween-80; higher = longer survival
Toxic doses and inconclusive results are not listed.
measure.name: T/C

Solved entries (count: 3):
CC(C)OC(N)=O
106 % of control
CC(=S)NC(O)C(=O)c1ccccc1 (centres undefined)
104 % of control
O=C(Nc1ccc(S(=O)(=O)F)c(Cl)c1)Oc1ccccc1
101 % of control

// query Returns the measured T/C for the input compound. Input: CC[C@H](CC[C@@H](C)C1CC[C@H]2[C@@H]3CC=C4C[C@@H](OP(=O)(N5CC5)N5CC5)CC[C@]4(C)[C@H]3CC[C@]12C)C(C)C (some centres undefined)
// result 92 % of control

// query Returns the measured T/C for the input compound. Input: O=C1NC(=O)C(c2ccccc2)(c2ccc(O)cc2)N1 (centres undefined)
// result 105 % of control

// query Returns the measured T/C for the input compound. Input: "O=C1C(=O)c2ccccc2C(O)=C1C(C1=C(O)c2ccccc2C(=O)C1=O)c1ccccc1Br"
// result 86 % of control

// query Returns the measured T/C for the input compound. Input: "COc1ccc(NC(=O)C(Cl)Cl)ccc1=O"
// result 96 % of control

// query Returns the measured T/C for the input compound. Input: "O=C1NCCN1c1ncc([N+](=O)[O-])s1"
// result 97 % of control

// query Returns the measured T/C for the input compound. Input: "C#CCCCN1CCC2(CC1)C(=O)N(C(=O)N(C)C)CN2c1ccccc1"
// result 97 % of control

====

Test system: CD2F1 mice, L1210 leukemia ip, survival T/C
protocol.summary: NCI In Vivo Anticancer Drug Screen. Data for tumor model L1210 Leukemia (intraperitoneal) in CD2F1 (CDF1) mice
experimental.context: endpoint: mean survival time; dose: 25.0 mg/kg/injection; schedule: Q04DX003 (ip); vehicle: Klucel (hydroxypropylcellulose) (HPC); higher = longer survival
Inconclusive results and toxic doses are left out.
measure.name: T/C

Solved entries (count: 3):
CN(C)/N=C\c1ccc([N+](C)(C)C)cc1
109 % of control
CCn1c(=O)c2[nH]c(Cl)nc2n(CC)c1=O
102 % of control
CC(=O)C1CCC2C3CC=C4CC(n5cc(F)c(=O)[nH]c5=O)CCC4(C)C3CCC12C (centres undefined)
101 % of control

// query Returns the measured T/C for the input compound. Input: CC(=O)C1CCC2C3CC=C4CC(n5c(=O)cc[nH]c5=O)CCC4(C)C3CCC12C (centres undefined)
// result 98 % of control

====

Test system: CD2F1 mice, L1210 leukemia ip, survival T/C
protocol.summary: NCI In Vivo Anticancer Drug Screen. Data for tumor model L1210 Leukemia (intraperitoneal) in CD2F1 (CDF1) mice
experimental.context: endpoint: mean survival time; dose: 6.25 mg/kg/injection; schedule: Q04DX003 (ip); vehicle: saline
Inconclusive results and toxic doses are left out. Rule for the calls: active = survival T/C of 150% or more; inactive = T/C below 125% in these data.
Please reply with one of these outcomes: 1 (yes) (active), 0 (no) (inactive)

For orientation, consider the following solved cases.
CC1CC(C)(C)NC1=O (stereo not given)
0 (no)
O=CC(O)C(O)C(O)C(O)C(=O)O.[NH-]C1CCCCC1[NH-].[Pt+2] (stereo not given)
1 (yes)
CC[N+](CC)=C1SCCCS1
0 (no)
c1ccc2n[se]nc2c1
0 (no)

// query What classification did "O=C(CBr)c1cccnc1" end up with in this test?
// result 0 (no)
